target: extracellular matrix (ECM) proteins; experiment: ECM plate ELISA (Matrigel), 1 uM antibody, A450 over wells without sample
Listing of entries alongside the reported ECM Score (1 µM).
Lab note: jot down the number only; don't add units.

Field: example entries. Status: answers known.
hz20-3 (antibody, V domains shown, light constant region not tied to this antibody) VH: EVQLVQSGAEVKKPGASVKVSCKASGYTFTNYGISWVRQAPGQGLEWMGEIYPRSGNTYHNEKFKDRVTMTADKSTSTAYMELRSLRSDDTAVYFCARSMITTRYWYFDVWGQGTLVTVSS VL: DIQMTQSPSSLSASVGDRVTITCRASESVDTYGNSFMHWYQQKPGKAPKLLIYLASNLESGVPSRFSGSGSGTDFTLTISSLQPEDFATYYCQQNNEDPLTFGQGTKVEIK :: 20
hz13-8 (antibody, V domains shown, light constant region not tied to this antibody) VH: EVLLVQSGAEVKKPGASVKLSCTSSDFNIKDHFIHWVRQAPGKGLEWIGRIDPEDDETKYAPKFQDRVTITADTSTDTAYLELSSLRSEDTAVFYCAGYGNYEGAMDYWGQGTLVTVSS VL: DIQMTQSPSSLSASVGDRVTITCRASENVNNYGIGFMNWFQQKPGKAPKLLIYAASRRGSGVPSRFSGSGSGTDFTLTISSLQPEDFATYFCQQSKEVPYTFGQGTKVEIK :: 2

Next:
Ask | For hz13-7 (antibody, V domains shown, light constant region not tied to this antibody) VH: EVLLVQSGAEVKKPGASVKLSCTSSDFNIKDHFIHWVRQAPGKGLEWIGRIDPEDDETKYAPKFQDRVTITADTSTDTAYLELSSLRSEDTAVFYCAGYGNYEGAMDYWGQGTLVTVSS VL: DIQMTQSPSSLSASVGDRVTITCRASENVNNYGIGFMNWYQQKPGKAPKLLIYAASRRGSGVPSRFSGSGSGTDFTLTISSLQPEDFATYYCQQSKEVPYTFGQGTKVEIK , what is its reported ECM Score (1 µM)?
Reply | 1
